target: KRAS G12V (Homo sapiens, UniProt P01116+P62937, G12V); assay: Disruption of BRAF RBD interaction with Ras (FRET / MOA assay, with Cyclophilin A); assay type: biochemical; details: KRAS G12V; read-out: KRAS G12V FRET data IC50
Sequence (P01116 1-169 isoform P01116-2 G12V limits assumed): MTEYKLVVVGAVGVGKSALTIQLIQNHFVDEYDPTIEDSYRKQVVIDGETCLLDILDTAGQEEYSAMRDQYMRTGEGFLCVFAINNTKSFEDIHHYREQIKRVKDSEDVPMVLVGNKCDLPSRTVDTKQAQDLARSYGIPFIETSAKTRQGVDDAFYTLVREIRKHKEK
Sequence (P62937 whole entry): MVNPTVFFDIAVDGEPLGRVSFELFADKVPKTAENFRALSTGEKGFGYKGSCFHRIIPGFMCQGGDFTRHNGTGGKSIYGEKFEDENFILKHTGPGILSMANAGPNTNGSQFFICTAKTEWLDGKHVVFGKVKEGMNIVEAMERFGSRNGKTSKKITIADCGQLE
measured-attribute: IC50

Input line: Any idea what its IC50 is? The compound is C=CC(=O)N1CCOC2(CCN(C(=O)N(C)[C@H](C(=O)N[C@H]3CN4CCC=C(C4)c4ccc5c(c4)c(c(-c4cccnc4[C@H](C)OC)n5CC)CC(C)(C)COC(=O)[C@@H]4CCCN(N4)C3=O)C(C)C)CC2)C1
Output line: 1 to 10 µM

Input line: Any idea what its IC50 is? The compound is CCn1c(-c2cnccc2COC)c2c3cc(ccc31)-c1cc(O)cc(c1)C[C@H](NC(=O)[C@H](C(C)C)N(C)CC(F)(F)F)C(=O)N1CCC[C@H](N1)C(=O)OCC(C)(C)C2
Output line: > 10 µM

Input line: Any idea what its IC50 is? The compound is CCn1c(-c2cccnc2[C@H](C)OC)c2c3cc(ccc31)-c1csc(n1)C[C@H](NC(=O)[C@H](C(C)C)N(C)C(=O)[C@H]1CCN(C(=O)/C=C/CN(C)C)C1)C(=O)N1CCC[C@H](N1)C(=O)OCC(C)(C)C2
Output line: 1 to 10 µM
